- System: BGC823
- assay_details: Cancer cell growth inhibition, BGC823
- Type: cell-based, human
- condition_summary: Homo sapiens, BGC-823; BGC823, Gastric Cancer, 72 h treatment
What log10 IC50 was measured for each of the following?
Hey, these are logged values: log10 of IC50, µM being the unit before logging.

O=C(NO)c1ccc(CNC(=O)c2[nH]c(-c3ccc(O)cc3)cc2-c2ccsc2)cc1 1.14
COc1ccc(-c2cc(-c3ccsc3)c(C(=O)NCc3ccc(C(=O)NO)cc3)[nH]2)cc1 0.89
COc1ccc(-c2cc(-c3ccoc3)c(C(=O)NCc3ccc(C(=O)NO)cc3)[nH]2)cc1 -0.17
O=C(NO)c1ccc(CNC(=O)c2[nH]c(-c3ccoc3)cc2-c2ccc(O)cc2)cc1 0.99

Now for the compound whose log10 IC50 we want.
QUERY: # get_value(readout='log10 IC50', item= O=C(NO)c1ccc(CNC(=O)c2[nH]c(-c3ccc(O)cc3)cc2-c2ccoc2)cc1 )
RESULT: 0.71

* * *

- system: Human HDAC11 (Homo sapiens (Human), UniProt Q96DB2)
- Sequence (Q96DB2 whole entry): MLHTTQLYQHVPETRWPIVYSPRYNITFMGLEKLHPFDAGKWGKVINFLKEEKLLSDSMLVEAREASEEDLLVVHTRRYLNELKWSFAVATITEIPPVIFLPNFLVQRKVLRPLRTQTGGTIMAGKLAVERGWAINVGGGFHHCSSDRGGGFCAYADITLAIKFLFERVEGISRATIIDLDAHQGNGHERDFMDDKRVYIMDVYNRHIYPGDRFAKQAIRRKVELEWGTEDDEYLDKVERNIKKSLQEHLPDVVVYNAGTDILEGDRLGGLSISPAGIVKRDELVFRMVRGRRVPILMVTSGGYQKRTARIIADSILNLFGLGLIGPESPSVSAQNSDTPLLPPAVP
- assay_details: HDAC11 fluorogenic peptide deacetylation assay
- Assay type: biochemical
- condition_summary: human HDAC11, 50 μM substrate, 30° C., 2 h; read-out: IC50 (nM) of enzyme activity HDAC11
Give IC50 for every item shown.

The cases that follow already have their IC50 on record.
O=C(NO)c1ccc(CNC(=O)c2[nH]c(-c3ccc(O)cc3)cc2-c2ccoc2)cc1 72 nM
O=C(NO)c1ccc(CNC(=O)c2[nH]c(-c3ccc(O)cc3)cc2-c2ccsc2)cc1 319 nM
Nc1ccccc1NC(=O)c1ccc(CNC(=O)c2[nH]c(-c3ccc(O)cc3)cc2-c2ccoc2)cc1 5660 nM
COc1ccc(-c2cc(-c3ccoc3)c(C(=O)NCc3ccc(C(=O)NO)cc3)[nH]2)cc1 341 nM

Kindly review the next compound as well.
QUERY: Please report the recorded IC50 for COc1ccc(-c2cc(-c3ccsc3)c(C(=O)NCc3ccc(C(=O)NO)cc3)[nH]2)cc1 .
RESULT: 718 nM

* * *

- System: SK-MES-1
- assay_details: Cancer cell growth inhibition, SK-MES-1
- Assay type: cell-based, human
- condition_summary: SK-MES-1, Lung Cancer, 72 h treatment
measured_endpoint: IC50
Quote the value and follow it with the unit of measurement.

QUERY: Entry N.N.[Cl][Pt][Cl] [Cisplatin, reference compound] has what IC50?
RESULT: 5.12 µM

* * *

- system: Human HDAC5 (Homo sapiens (Human), UniProt Q9UQL6)
- Sequence (Q9UQL6 other isoform, or with tags, fused parts or gaps): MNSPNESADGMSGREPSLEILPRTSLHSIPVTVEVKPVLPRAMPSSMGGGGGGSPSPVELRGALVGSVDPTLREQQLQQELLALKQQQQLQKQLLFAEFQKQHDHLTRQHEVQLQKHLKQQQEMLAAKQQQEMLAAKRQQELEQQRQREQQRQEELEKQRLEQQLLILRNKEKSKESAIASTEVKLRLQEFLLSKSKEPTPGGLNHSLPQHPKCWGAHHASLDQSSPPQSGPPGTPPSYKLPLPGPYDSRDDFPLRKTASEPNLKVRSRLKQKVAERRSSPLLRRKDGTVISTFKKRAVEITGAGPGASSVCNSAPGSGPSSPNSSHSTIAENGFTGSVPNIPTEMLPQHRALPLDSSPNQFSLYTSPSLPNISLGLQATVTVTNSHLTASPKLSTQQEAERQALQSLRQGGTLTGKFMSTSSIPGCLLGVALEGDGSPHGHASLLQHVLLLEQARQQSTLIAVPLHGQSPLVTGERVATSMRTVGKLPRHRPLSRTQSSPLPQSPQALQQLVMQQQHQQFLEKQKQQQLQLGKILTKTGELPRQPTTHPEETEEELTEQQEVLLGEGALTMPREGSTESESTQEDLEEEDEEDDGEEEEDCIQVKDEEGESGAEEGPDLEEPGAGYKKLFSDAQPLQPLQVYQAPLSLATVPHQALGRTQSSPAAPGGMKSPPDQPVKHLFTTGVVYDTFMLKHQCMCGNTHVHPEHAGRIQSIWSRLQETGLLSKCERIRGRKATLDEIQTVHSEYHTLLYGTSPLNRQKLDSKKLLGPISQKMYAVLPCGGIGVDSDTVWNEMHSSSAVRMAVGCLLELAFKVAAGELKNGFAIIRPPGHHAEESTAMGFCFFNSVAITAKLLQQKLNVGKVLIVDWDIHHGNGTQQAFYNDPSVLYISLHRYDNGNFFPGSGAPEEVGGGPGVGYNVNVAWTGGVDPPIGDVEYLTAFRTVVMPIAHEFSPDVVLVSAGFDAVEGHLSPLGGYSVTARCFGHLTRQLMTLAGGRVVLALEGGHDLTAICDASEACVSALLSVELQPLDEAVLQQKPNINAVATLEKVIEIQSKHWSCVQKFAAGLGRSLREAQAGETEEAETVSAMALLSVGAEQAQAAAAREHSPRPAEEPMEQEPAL
- assay_details: HDAC5 fluorogenic peptide deacetylation assay
- Format: biochemical
- condition_summary: human HDAC5, 50 μM substrate, 30° C., 2 h; read-out: IC50 (nM) of enzyme activity HDAC5
Decide using IC50 alone. Strictly below 200 nM: True. Equal to or above 200 nM: False.

COc1ccc(-c2cc(-c3ccsc3)c(C(=O)NCc3ccc(C(=O)NO)cc3)[nH]2)cc1 False
COc1ccc(-c2cc(-c3ccoc3)c(C(=O)NCc3ccc(C(=O)NO)cc3)[nH]2)cc1 False
O=C(NO)c1ccc(CNC(=O)c2[nH]c(-c3ccc(O)cc3)cc2-c2ccsc2)cc1 True
O=C(NO)c1ccc(CNC(=O)c2[nH]c(-c3ccc(O)cc3)cc2-c2ccoc2)cc1 True

Moving on to the next compound.
QUERY: Bench note: check whether Nc1ccccc1NC(=O)c1ccc(CNC(=O)c2[nH]c(-c3ccc(O)cc3)cc2-c2ccoc2)cc1 shows IC50 below 200 nM
RESULT: False
